Origin of the recorded values: patent US6008227A

# TESTED_TARGET: 5-HT transporter (Rattus norvegicus)
# Sequence (P31652 whole entry): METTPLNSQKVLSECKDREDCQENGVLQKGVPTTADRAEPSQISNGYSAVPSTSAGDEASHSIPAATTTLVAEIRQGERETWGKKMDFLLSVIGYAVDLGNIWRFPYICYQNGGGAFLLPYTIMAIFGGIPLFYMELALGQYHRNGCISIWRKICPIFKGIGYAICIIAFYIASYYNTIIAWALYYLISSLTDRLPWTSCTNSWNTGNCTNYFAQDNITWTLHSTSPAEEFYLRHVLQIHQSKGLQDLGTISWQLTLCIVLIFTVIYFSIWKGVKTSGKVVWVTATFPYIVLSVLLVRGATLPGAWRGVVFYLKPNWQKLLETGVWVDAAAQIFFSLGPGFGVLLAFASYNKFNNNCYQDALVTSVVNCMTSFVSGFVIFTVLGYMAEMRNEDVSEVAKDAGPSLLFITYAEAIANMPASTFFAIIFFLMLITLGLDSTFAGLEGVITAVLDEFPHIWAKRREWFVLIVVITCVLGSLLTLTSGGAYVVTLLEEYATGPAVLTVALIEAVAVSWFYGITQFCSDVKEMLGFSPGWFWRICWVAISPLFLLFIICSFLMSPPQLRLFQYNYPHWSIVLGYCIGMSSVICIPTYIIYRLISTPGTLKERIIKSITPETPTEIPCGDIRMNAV
# METHOD_NOTES: Displacement of [^3 H]paroxetine binding to 5-HT transporter sites in rat frontal cortex
# Parameters: from tissue; host or cells: rat frontal cortex
pKi: −log10 of the molar value.
MEASURED_METRIC: pKi

[ask] Lookup: pKi / 5-HT transporter (Rattus norvegicus) / CC(=O)[C@@H]1[C@@H](c2ccc(F)cc2)C[C@@H]2CC[C@H]1N2C (relative stereo)
[reply] < 5.00

----------
In this section we review reported pIC50 values for a set of molecules.
# TESTED_TARGET: dopamine transporter (Rattus norvegicus)
# Construct: was used to label dopamine transporters in rat striatal membranes; from tissue; host or cells: rat striatal membranes
# Sequence (P23977 whole entry): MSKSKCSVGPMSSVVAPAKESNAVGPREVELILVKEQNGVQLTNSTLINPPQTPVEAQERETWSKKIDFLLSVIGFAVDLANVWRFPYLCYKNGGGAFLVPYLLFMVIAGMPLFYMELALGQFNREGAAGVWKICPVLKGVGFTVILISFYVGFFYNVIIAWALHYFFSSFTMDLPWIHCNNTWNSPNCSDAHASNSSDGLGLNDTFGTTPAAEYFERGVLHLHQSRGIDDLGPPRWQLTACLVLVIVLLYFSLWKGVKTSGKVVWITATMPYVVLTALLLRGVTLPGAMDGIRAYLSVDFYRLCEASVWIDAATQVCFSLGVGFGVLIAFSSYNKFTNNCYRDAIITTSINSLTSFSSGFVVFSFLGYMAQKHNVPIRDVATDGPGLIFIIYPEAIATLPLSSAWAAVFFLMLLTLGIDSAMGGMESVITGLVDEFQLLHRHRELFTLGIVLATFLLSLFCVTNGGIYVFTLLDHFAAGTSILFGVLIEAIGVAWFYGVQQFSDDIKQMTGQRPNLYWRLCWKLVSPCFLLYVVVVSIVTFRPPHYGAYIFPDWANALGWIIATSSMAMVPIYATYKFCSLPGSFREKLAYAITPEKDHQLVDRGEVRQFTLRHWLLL
# METHOD_NOTES: Inhibition of [3H]dopamine uptake into dissociated striatal cells from fetal and adult rat brain
# Assay type: cell-based
pIC50 is a log-scale quantity: -log10 of the concentration expressed in molar.

[ask] Could you share which pIC50 value was measured for CCC(=O)[C@H]1[C@@H](c2cccc3ccccc23)C[C@@H]2CC[C@H]1N2C (relative stereo) ?
[reply] 8.44

[ask] For CCc1ccc([C@H]2C[C@@H]3CC[C@H]([C@H]2C(C)=O)N3C)cc1 (relative stereo) then?
[reply] 5.94
